B1: DVL3 (parent)
chain: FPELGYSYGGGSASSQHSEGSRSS

# Variants of: B1
# METHOD_NOTES: protein stability index of a GFP-peptide fusion (GPS, HEK-293T) (PSI 1-6); higher = more stable;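 note: lentivirally expressed fusions sorted by FACS into six bins by GFP to DsRed ratio, PSI derived from sequencing read proportions per bin multiplied by bin number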
# EXPERIMENTAL_PARAMETERS: c terminus: a fixed tail appended
# protein stability index listing for each entry below
No unit in the answer, only the number.

• FPELGYSYGVGSASSQHSEGSRSS = 2.83
• FPELGYSYGGCSASSQHSEGSRSS = 2.7
• FPELGYPYGGGSASSQHSEGSRSS = 2.7
• FPELGYSYGGGSRSSQHSEGSRSS = 3.12
• FPELGYSYCGGSASSQHSEGSRSS = 2.3

Look up protein stability index: `FPELGYSYGGGSASSQHSEGSCSS`
3.41

Okay, and `FPELGYSYGGGSASSQCSEGSRSS` ?
3.1

Entry `FPELGYSYGGGSASSFHSEGSRSS` please
2.03
